- experiment-summary: Selectivity index, ratio of IC50 for african green monkey Vero cells to IC90 for Mycobacterium tuberculosis H37Rv
- Format: toxicity, cell-based
- test-settings: read-out: Selectivity Index
experimental-readout: selectivity ratio
One number for each entry.

smiles-string	selectivity ratio
Cc1ccc2c(c1)/C(=N/NC(=S)NC1CCCCC1)C(=O)N2	1.98
O=C1/C(=N\NC(=S)Nc2ccc(Cl)cc2)c2cc(OC(F)(F)F)ccc2N1CN1CCOCC1	3.19
Cc1ccc2c(c1)/C(=N/NC(=S)Nc1cccc(Br)c1)C(=O)N2	0.473

Here are 4 compounds. What values of selectivity ratio were reported for them?
1. O=C1/C(=N\NC(=S)NC2CCCCC2)c2cc(OC(F)(F)F)ccc2N1CN1CCOCC1
2. O=C1/C(=N\NC(=S)Nc2ccc(Br)cc2)c2cc(OC(F)(F)F)ccc2N1CN1CCOCC1
3. Cc1ccc2c(c1)/C(=N/NC(=S)Nc1ccccc1)C(=O)N2
4. Cc1ccc2c(c1)/C(=N/NC(=S)Nc1ccc(Cl)cc1)C(=O)N2

OUTPUT:
1: 4.12; 2: 2.46; 3: 0.742; 4: 3.46
